Provide the reported IC50 of each item.
System: PA-1
Assay: Cytotoxic activity against Homo sapiens (human) PA1 cells incubated for 4 hr followed by compound wash-out measured after doubling time by MTT assay
Assay type: functional, cell-based
Conditions: Homo sapiens, PA-1, 4 h; read-out: IC50
Give bare numbers, in µg/mL.

Smiles String | Measured Target | IC50 / µg/mL
COC(=O)C1=CO[C@@H](O[C@@H]2O[C@H](COC(=O)c3cccc([N+](=O)[O-])c3)[C@@H](OC(C)=O)[C@H](OC(C)=O)[C@H]2OC(C)=O)[C@@H]2[C@@H](C)[C@@H](OC(C)=O)C[C@H]12 | PA-1 | 0.85
CCC(=O)OC[C@H]1O[C@@H](O[C@@H]2OC=C(C(=O)OC)[C@H]3C[C@H](OC(C)=O)[C@H](C)[C@@H]23)[C@H](OC(C)=O)[C@@H](OC(C)=O)[C@@H]1OC(C)=O | PA-1 | 1.24
CC[C@]1(O)C[C@@H]2CN(CCc3c([nH]c4ccccc34)[C@@](C(=O)OC)(c3cc4c(cc3OC)N(C)[C@H]3[C@@](O)(C(=O)OC)[C@H](OC(C)=O)[C@]5(CC)C=CCN6CC[C@]43[C@@H]65)C2)C1 | PA-1 | 0.03

Could you report IC50 for every entry in the following list?
1. COC(=O)C1=CO[C@@H](O[C@@H]2O[C@H](COC(=O)C=C(C)C)[C@@H](OC(C)=O)[C@H](OC(C)=O)[C@H]2OC(C)=O)[C@@H]2[C@@H](C)[C@@H](OC(C)=O)C[C@H]12
2. COC(=O)C1=CO[C@@H](O[C@@H]2O[C@H](COC(c3ccccc3)(c3ccccc3)c3ccccc3)[C@@H](O)[C@H](O)[C@H]2O)[C@@H]2[C@@H](C)[C@@H](O)C[C@H]12

Result block:
0.65
0.65
